Items are presented alongside their recorded screen value.
B1: Strep-His-TEV-HaloTag-3C-Xenopus γTuNA (Xenopus Cdk5rap2 aa 56–101), wildtype [Xenopus laevis] / itself (parent)
chain: MKDFEKQIAELKKENFNLKLRIYFLEEQVQQKCDNSSEDLYRMNIE

Variants of: B1
TEST_DETAILS: size-exclusion chromatography (self-association / dimerization)
CONDITION_PARAMETERS: with itself; 50 µM (monomer); Superdex 200 increase 10/300 GL; read off a plot
Enter your answer as a number in mL; do not include the unit.

Past entries and their recorded results:
VARIANT_DESCRIPTOR: chain 1 I8A
READOUT_UNITS: mL
screen value: 13.5
//
VARIANT_DESCRIPTOR: chain 1 L18A
READOUT_UNITS: mL
screen value: 14.2

Incoming: Could you tell me which screen value is on file for chain 1 F16A ?
Outgoing: 13.3

Incoming: Can you share its screen value? I mean this variant: chain 1 F4A
Outgoing: 13.4

Hello, the source for this data is paper PMC9859039, in case you need it.
